Experiment: NCI Yeast Anticancer Drug Screen. Data for the mlh1 strain (AID 171);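 also: 0% = growth of vehicle-treated control cultures of the same strain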
Conditions: S. cerevisiae mlh1 strain growth inhibition; at 100.0 µM; stronger effect = higher value
The panel holds about 79,000 compounds, 15% with a hit somewhere; the sample as a whole holds those more often.
Documented growth inhibition across a set of compounds
Expressed in %, but write only the number.

Use the examples below as a reference point.
Clc1cc(Cc2ccc(N=C/C=C/c3ccccc3)c(Cl)c2)ccc1N=C/C=C\c1ccccc1; 12
Nc1nc(N)c2cc(Sc3ccc4ccccc4c3)ccc2n1; 93
O=C(NC(=S)Nc1ccccn1)c1ccccc1; -37
CCOC(=O)Nc1ccc2c(c1)Cc1ccccc1-2; -5
CC(C)c1cccc(O)c(=O)c1; 99
O=C1C=CC(=O)N1c1ccc2c(c1)OCO2; 99

Item CCCCC1=NNC(=O)C1 : provide growth inhibition
-18

Item Clc1cc(-c2ccccc2)nc2ccccc12 : provide growth inhibition
95

Item N#C/C(=C/c1c(Cl)cccc1Cl)C(N)=O : provide growth inhibition
97

Item CCOC(=O)[C@]1(Br)CC[C@@]1(Br)C(=O)OCC : provide growth inhibition
99

Item Cc1ccc(CNc2ccc(Br)cc2)cc1 : provide growth inhibition
85

Item CCOP1(=O)C=C(Sc2ccc([N+](=O)[O-])cc2[N+](=O)[O-])C(C)(C)O1 (stereo not drawn) : provide growth inhibition
83

Item CCCCCCCCCCCc1nc(N)n[nH]1 : provide growth inhibition
95

###

Documented growth inhibition across a set of compounds
Assay: NCI Yeast Anticancer Drug Screen. Data for the CLN2oe strain (AID 163);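 also: 0% = growth of vehicle-only control cultures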
Conditions: S. cerevisiae CLN2oe strain, at 3.7 µM, stronger effect = higher value
The panel holds about 79,000 compounds, 15% with a hit somewhere; the sample as a whole holds those more often.
Expressed in %, but write only the number.

Use the examples below as a reference point.
COc1ccc(/C=C2\SC(=S)N(C=C3C(=O)NC(=S)NC3=O)C2=O)cc1OC; -1
CN(CC(=O)O)c1ccc(/C=C/c2ccnc3ccccc23)cc1; -4
Cc1ccc(S(=O)(=O)N/N=C/C2(c3ccccc3)c3ccccc3-c3ccccc32)cc1; 38
S=P(N1CC1)(N1CC1)N1CC1; 0
CCCCCCCCCCCCCC(=O)OC(C)CCC1CCCO1 (stereo not drawn); 2

Item CC(C)c1[nH]nc(C(N)=O)c1N=NN(C)C : provide growth inhibition
-5

Item CCN(CC)CC(O)c1cc(-c2ccc(Cl)cc2)nc2c(-c3ccccc3)cccc12 (stereo not drawn) : provide growth inhibition
2

Item COc1ccc2c(c1)[nH]c1c(/C=C/c3ccccc3)nccc12 : provide growth inhibition
-23

Item CC(=O)C1(O)Cc2c(O)c3c(c(O)c2C(OC2CC(N)C(O)C(C)O2)C1)C(=O)c1ccccc1C3=O (stereo not drawn) : provide growth inhibition
46

Item O=Cc1coc2ccccc2c1=O : provide growth inhibition
25

Item CCOc1ccc(C(=O)CCC(=O)O)c(C)c1 : provide growth inhibition
-1

Item COc1cc([C@@H]2c3cc4c(cc3[C@@H](OC3OC5COC(C)OC5C(O)C3O)[C@H]3COC(=O)[C@H]23)OCO4)cc(OC)c1O (stereo partly drawn) : provide growth inhibition
-6

Item Nc1ccc2c(=S)c3ccccc3[nH]c2c1 : provide growth inhibition
4

###

Experiment: NCI Yeast Anticancer Drug Screen. Data for the rad18 strain (AID 177)
Conditions: S. cerevisiae rad18 mutant growth inhibition; at 11.0 µM
Compounds without any hit were thinned out: in the full panel of roughly 79,000, 15% have a hit. Calls of active or inactive are those of the source. No stated cut-off is given here; in the data, active means growth inhibition above about 70%; inactive means the rest.
Outcome field: choose from 1.0 = active, 0.0 = inactive

These recorded examples may help you get a feel for the data.
Cc1ccc(Nc2n[nH]c(=S)s2)cc1; 0.0
NCc1c(O)ccc2ccccc12; 0.0
CC1CCC2(C(=O)O)CCC3(C)C(=CCC4C5(C)CC(O)C(O)C(C)(CO)C5C(O)CC43C)C2C1C (configuration not stated); 0.0

Query compound follows.
Record lookup: outcome of this test for O=Nn1c2ccccc2c2cc([N+](=O)[O-])ccc21 ?
0.0

Taken from PubChem BioAssay (NCI).
